assay: Pharmacokinetics and biodistribution study in mice (IV and PO); assay type: in vivo, BALB/c mice; conditions: male, mouse, plasma; BALB/c mice (Figure 3B); read-out: plasma terminal half-life (converted)
Property Measured: half-life (h)
Form entry: value (h) — number only.

**Query** Recorded half-life of Cc1c(C)c2c(c(C)c1OCCCCCN1CC(O)C(O)C(O)C1CO)CCC(C)(CCCC(C)CCCC(C)CCCC(C)C)O2 (stereo not shown) [Compound 4, 5′-tocopheroxypentyl-DNJ] , please.
**Result** 8.79

====

target: UniProtKB P10253; experiment: Inhibition of human lysosomal α-glucosidase (α-p-nitrophenylglucoside substrate); conditions: isolated enzyme in vitro; mean of three measurements; read-out: IC50, α-Glucosidase, Human lysosome
Property Measured: IC50 (nM)
Just the number in nM, nothing appended.

**Query** Give recorded IC50 with UniProtKB P10253 for the following molecule: CCCCN1CC(O)C(O)C(O)C1CO [Compound 2, N-butyl-D-1-deoxynojirimycin, reference compound]
**Result** 2100

====

molecular target: Rat liver ER α-glucosidase II (Rattus norvegicus); construct: Rat liver ER, II; test: Inhibition of isolated rat liver ER α-glucosidase II (α-p-nitrophenylglucoside substrate); settings: isolated enzyme in vitro; read-out: IC50 with regard to GluII
Sequence (A0A8I6GFL3 33-944): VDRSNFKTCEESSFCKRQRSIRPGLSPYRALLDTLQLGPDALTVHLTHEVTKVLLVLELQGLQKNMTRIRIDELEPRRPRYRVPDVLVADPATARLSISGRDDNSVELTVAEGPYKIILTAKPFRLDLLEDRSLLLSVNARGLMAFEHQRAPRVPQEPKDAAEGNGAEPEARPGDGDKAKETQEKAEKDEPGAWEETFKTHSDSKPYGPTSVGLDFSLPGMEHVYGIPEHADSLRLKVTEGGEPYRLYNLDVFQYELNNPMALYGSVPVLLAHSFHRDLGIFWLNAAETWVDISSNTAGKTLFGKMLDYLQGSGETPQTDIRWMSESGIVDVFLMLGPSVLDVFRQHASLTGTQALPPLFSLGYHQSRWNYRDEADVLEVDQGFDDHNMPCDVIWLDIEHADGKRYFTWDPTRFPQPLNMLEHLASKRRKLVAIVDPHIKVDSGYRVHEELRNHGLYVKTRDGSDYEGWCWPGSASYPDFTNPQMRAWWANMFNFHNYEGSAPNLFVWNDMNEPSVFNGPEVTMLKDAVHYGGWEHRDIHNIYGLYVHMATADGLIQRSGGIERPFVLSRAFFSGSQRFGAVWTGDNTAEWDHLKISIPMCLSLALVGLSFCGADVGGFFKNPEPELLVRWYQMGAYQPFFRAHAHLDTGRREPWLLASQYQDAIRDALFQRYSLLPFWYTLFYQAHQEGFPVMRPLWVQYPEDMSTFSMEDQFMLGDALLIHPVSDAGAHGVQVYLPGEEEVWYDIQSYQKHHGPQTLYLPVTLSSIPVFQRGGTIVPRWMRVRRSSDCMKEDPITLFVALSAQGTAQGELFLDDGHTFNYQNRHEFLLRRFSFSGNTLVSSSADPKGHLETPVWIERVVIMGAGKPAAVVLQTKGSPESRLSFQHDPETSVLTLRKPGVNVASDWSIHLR
Sequence (A0A8I6ADW9 1-525 partner): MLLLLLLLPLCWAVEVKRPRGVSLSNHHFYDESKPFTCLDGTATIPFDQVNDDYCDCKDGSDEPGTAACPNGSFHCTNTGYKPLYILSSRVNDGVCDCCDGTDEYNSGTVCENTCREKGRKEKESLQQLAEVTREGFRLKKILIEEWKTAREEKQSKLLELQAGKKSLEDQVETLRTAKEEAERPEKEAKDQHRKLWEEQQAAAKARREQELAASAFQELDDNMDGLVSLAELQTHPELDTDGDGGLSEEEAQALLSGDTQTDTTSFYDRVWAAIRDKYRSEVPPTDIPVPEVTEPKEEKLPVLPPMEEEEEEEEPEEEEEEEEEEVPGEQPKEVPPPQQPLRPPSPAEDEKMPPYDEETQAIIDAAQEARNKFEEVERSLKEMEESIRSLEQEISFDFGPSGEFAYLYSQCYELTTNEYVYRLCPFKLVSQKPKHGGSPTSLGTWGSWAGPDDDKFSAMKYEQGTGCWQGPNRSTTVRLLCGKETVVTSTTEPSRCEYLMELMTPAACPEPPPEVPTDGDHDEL
Property Measured: pIC50
Schema: pIC50 number; meaning minus log10 of the concentration expressed in molar units.

**Query** Provide the documented pIC50 with Rat liver ER α-glucosidase II (Rattus norvegicus) as the system for CCCCN1CC(O)C(O)C(O)C1CO [Compound 2, N-butyl-D-1-deoxynojirimycin, reference compound]
**Result** 4.89

**Query** Here is the next compound: OC[C@H]1NC[C@H](O)[C@@H](O)[C@@H]1O [Compound 1, D-1-deoxynojirimycin, reference compound]
**Result** 4.80

**Query** Let us now turn to Cc1c(C)c2c(c(C)c1OCCCCCN1CC(O)C(O)C(O)C1CO)CCC(C)(CCCC(C)CCCC(C)CCCC(C)C)O2 (stereo not drawn)
**Result** 5.05

====

target: rat liver ER GluII (Rattus norvegicus, UniProt A0A8I6GFL3); construct: Rat liver ER, II; from tissue; host or cells: liver of male Wistar rats; test: ER α-glucosidase II inhibition with native-like fluorescently labelled glycan substrate (HPLC); type: biochemical; details: second GluII reaction; fluorescently labelled glycan substrate; read-out: IC50 for the conversion of monoglucosylated to nonglucosylated glycan by GluII
Sequence (A0A8I6GFL3 33-944): as the sequence (A0A8I6GFL3 33-944) above
Sequence (A0A8I6ADW9 1-525 partner): as the sequence (A0A8I6ADW9 1-525 partner) above
Property Measured: pIC50
By convention, pIC50 is the negative base-10 log of a molar concentration.

**Query** Quick check: pIC50 of Cc1c(C)c2c(c(C)c1OCCCCCN1CC(O)C(O)C(O)C1CO)CCC(C)(CCCC(C)CCCC(C)CCCC(C)C)O2 (stereo not shown) [Compound 4, 5′-tocopheroxypentyl-DNJ] ?
**Result** 4.25
